# System name: Rhesus/Macaque TNF (rhesus/macaque, UniProt P48094 77-233)
# Sequence (P48094 77-233 limits assumed): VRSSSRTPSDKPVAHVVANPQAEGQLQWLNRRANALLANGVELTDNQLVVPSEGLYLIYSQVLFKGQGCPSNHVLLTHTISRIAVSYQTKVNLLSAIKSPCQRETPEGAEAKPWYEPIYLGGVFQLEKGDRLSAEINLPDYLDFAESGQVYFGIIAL
# Run description: cell-based or functional assay
Property name: rhesus TNF neutralization IC50 (L929 bioassay) (nM)
Dear colleague, please return just the value in nM, with no unit written.

Task item: Form field: reported rhesus TNF neutralization IC50 (L929 bioassay) of hMAK195-AM14 (antibody, V domains shown, Full-length IgG; also called rHC3; hMAK195 rHC3) VH: EVQLVESGGGLVQPGGSLRLSCAASGFTFSNYGVSWVRQAPGKGLEWVSMIWADGSTHYASSLKGRFTISRDNSKNTLYLQMNSLRAEDTAVYYCAREWQHGPVAYWGQGTLVTVSS VL: DIQMTQSPSSLSASVGDRVTITCKASQAVSSAVAWYQQKPGKAPKLLIYWASTRHTGVPSRFSGSGSGTDFTLTISSLQPEDFATYYCQQHYSTPFTFGQGTKLEIKR
Reply: 4.61

Task item: // same read-out, input: hMAK195-AM26 (antibody, V domains shown) VH: EVQLVESGGGLVQPGGSLRLSCAASGFTFSNYGVSWVRQAPGKGLEWVSMIWADGSTHYADTVKGRFTISRDNSKNTLYLQMNSLRAEDTAVYYCAREWQHGPLAYWGQGTLVTVSS VL: DIQMTQSPSSLSASVGDRVTITCRASQLVSSAVAWYQQKPGKAPKLLIYWASTRHTGVPSRFSGSGSGTDFTLTISSLQPEDFATYYCQQHYRTPFTFGQGTKLEIKR
Reply: 0.249

Task item: // same read-out, input: hMAK195-AM20 (antibody, V domains shown) VH: EVQLVESGGGLVQPGGSLRLSCAASGFTFSNYGVTWVRQAPGKGLEWVSMIWADGSTHYASSVKGRFTISRDNSKNTLYLQMNSLRAEDTAVYYCAREWQHGPVAYWGQGTLVTVSS VL: DIQMTQSPSSLSASVGDRVTITCKASQLVSSAVAWYQQKPGKAPKLLIYWASTRHTGVPSRFSGSGSGTDFTLTISSLQPEDFATYYCQQHYSTPFTFGQGTKLEIKR
Reply: 0.596

The measured values listed here are drawn from patent US20130164256A1.
